target: human alpha-synuclein monomer (human, UniProt P37840 1-140); assay: SPR (Biacore 8K), IgG captured on anti-human Fc, aSyn monomer injected
Let's look at some binders and their measured Kd.
parameter: Kd

[[record]]
binder = "HC5_LC_k3_6 (antibody, V domains shown) VH: EVQLVESGGGLVQPGGSLRLSCAASGFTFSNAAMYWVRQAPGKGLELLARIRTKPNNYATYHADSVKGRFTISRDDSKNTVYLQMNSLRAEDTAVYYCTADMATGDYWGQGTLVTVSS VL: EIVMTQSPATLSLSPGERATLSCKASANINKQLDWYQQKPGQAPRPLIYSTNNLKTGIPARFSGSGSGTDFTLTISSLQPEDFAVYYCYQYKSAWTFGQGTKVEIK"
measurement = "0.19 nM"

[[record]]
binder = "HC6_LC_k3_8 (antibody, V domains shown) VH: EVQLVESGGGLVQPGGSLRLSCAASGFTFSNAAMYWVRQAPGKGLELVSRIRTKPNNYATYHADSVKGRFTISRDDSKNTLYLQMNSLRAEDTAVYYCTADMATGDYWGQGTLVTVSS VL: EIVMTQSPATLSLSPGERATLSCKASQGISNYLDWYQQKPGQAPRPLIYSTNNLKTGIPARFSGSGSGTDFTLTISSLQPEDFAVYYCYQYKSAWTFGQGTKVEIK"
measurement = "0.22 nM"

[[record]]
binder = "20H4_HC5_LC_k3_1 (antibody, V domains shown) VH: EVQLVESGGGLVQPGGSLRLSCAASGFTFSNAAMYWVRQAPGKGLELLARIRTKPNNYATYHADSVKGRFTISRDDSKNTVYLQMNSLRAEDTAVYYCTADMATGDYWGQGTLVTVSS VL: EIVMTQSPATLSLSPGERATLSCKASQNINNNLDWYQQKPGQAPRPLIYSTNNLKTGIPARFSGSGSGTDFTLTISSLQPEDFAVYYCYQYKSAWTFGQGTKVEIK"
measurement = "0.13 nM"


Numbers sourced from patent US20230074436A1.
